These data points were gathered from PubChem BioAssay (NCI).

Test system: OVCAR-4 ovarian
test: NCI tumour cell line growth inhibition, 48 h
endpoint name: TGI (µM)
Number in µM, nothing else.

Q: What TGI value was documented for this molecule, CN(C)CCCNc1cnc2cc3ccccc3cc2n1 ?
A: 91.4

Q: What TGI value was documented for this molecule, CC(O)c1cc2c(s1)C(=O)c1scc(C(C)O)c1C2=O (stereo not given) ?
A: 1.73

Q: What TGI value was documented for this molecule, CC1=C(C(=O)Nc2ccc([N+](=O)[O-])cc2)C(c2ccccc2O)C(C(=O)Nc2ccc([N+](=O)[O-])cc2)=C(C)N1 ?
A: 73.8

Q: What TGI value was documented for this molecule, O=CC(Br)C(Br)c1ccccc1 (stereo not given) ?
A: 3.14

Q: What TGI value was documented for this molecule, COc1cccc2c1-c1c(OC)cccc1SS2 ?
A: 90.5

====

Tested on: KM12 colon
test: NCI tumour cell line growth inhibition, 48 h
Provide the reported TGI of each item.
Number in µM, nothing else.

Q: What TGI value was documented for this molecule, COP(=O)(OC)c1ccc(NCc2cc(O)ccc2O)cc1 ?
A: 38.4

Q: What TGI value was documented for this molecule, CSc1n(Cc2ccc3ccccc3c2)c(C)c[n+]1Cc1ccc2ccccc2c1 ?
A: 1.96

Q: What TGI value was documented for this molecule, CC1=C(C(=O)Nc2ccc([N+](=O)[O-])cc2)C(c2ccccc2O)C(C(=O)Nc2ccc([N+](=O)[O-])cc2)=C(C)N1 ?
A: 55

Q: What TGI value was documented for this molecule, COc1ccc2nc3cc([N+](=O)[O-])ccc3c(NCCCN(CCO)CCO)c2c1 ?
A: 9.97

Q: What TGI value was documented for this molecule, COc1cc(-c2csc(NC(=O)Nc3cc(C(F)(F)F)cc(C(F)(F)F)c3)n2)cc(OC)c1OC ?
A: 11.8

====

Tested on: K-562 leukemia
test: NCI tumour cell line growth inhibition, 48 h; in the data active = GI50 below about 0.43 µM; inactive = the rest
Reply using exactly one outcome from label 1 for active, label 0 for inactive

Q: Recorded test call requested for CC1(C)CCC[C@]2(C)c3cc(O)ccc3CC[C@@H]12
A: label 0

Q: Recorded test call requested for COc1ccc(-c2cn(-c3cccc(C(=O)/C=C/c4ccc(O)c(OC)c4)c3)c(=O)[nH]2)cc1
A: label 0

Q: Recorded test call requested for C=C1C(=O)O[C@@H]2OC3(C)CCC4C(C)CCC1C42OO3 (stereo not given in full)
A: label 0

Q: Recorded test call requested for CCCOC(=O)N[C@H]1CCc2cc(OC)c(OC)c(OC)c2-c2ccc(SC)c(=O)cc21
A: label 1

Q: Recorded test call requested for O=C(O)CC(NC(=O)CP(=O)(O)O)C(=O)O.[NH-]C1CCCCC1[NH-].[Pt+2] (stereo not given)
A: label 0

Q: Recorded test call requested for COc1ccc([I+]c2ccccc2)cc1
A: label 0

Q: Recorded test call requested for CCOC(=O)NC1=C(N2CC2)C(=O)C(NC(=O)OCC)=C(N2CC2)C1=O
A: label 0

Q: Recorded test call requested for CCCCOC(=O)c1ccc(NC(=O)CCl)cc1
A: label 0

Q: Recorded test call requested for C[n+]1c2ccccc2c(Nc2ccc(NS(=O)(=O)CCCCN=C(N)N)cc2)c2ccc(N)cc21
A: label 0

Q: Recorded test call requested for COc1ccc2c(c1)c1nc3cc(C)c(C)cc3nc1n2CCN(C)C
A: label 0

Q: Recorded test call requested for CN1CCN(C(=O)c2c(NC(=O)NS(=O)(=O)c3ccccc3)sc3c2CCCCC3)CC1
A: label 0

Q: Recorded test call requested for Cn1c(/C=C(\C#N)c2cccc(C(F)(F)F)c2)nc2c(N3CCOCC3)nc(Cl)nc21
A: label 1

Q: Recorded test call requested for COc1cc2c(cc1OC)-c1ccc3cc4c(cc3c1N(CCN(C)C)C2)OCO4
A: label 1

Q: Recorded test call requested for C[C@]1(C(=O)O)N[C@H](C(=O)O)CS1
A: label 0

Q: Recorded test call requested for CCN(CC)CCCC(C)Nc1c2ccc(Cl)cc2nc2cc(OC)c(OC)cc12 (stereo not given)
A: label 0

====

System: HCC-2998 colon
test: NCI tumour cell line growth inhibition, 48 h; in the data active = GI50 below about 0.43 µM; inactive = the rest
Reply using exactly one outcome from active, inactive

Q: Recorded test call requested for CCCOC(=O)N[C@H]1CCc2cc(OC)c(OC)c(OC)c2-c2ccc(SC)c(=O)cc21
A: active

Q: Recorded test call requested for COc1ccc2c3c(c4ccccc4cc13)C(=O)N(CCN(C)CCN)C2=O
A: active

Q: Recorded test call requested for O=CC(Br)C(Br)c1ccccc1 (stereo not given)
A: inactive

Q: Recorded test call requested for Cc1cc(Nc2ccc(F)cc2)nc(N2CCN(c3ccnc4cc(Cl)ccc34)CC2)n1
A: inactive

Q: Recorded test call requested for C[n+]1c2ccccc2c(Nc2ccc(NS(=O)(=O)CCCCN=C(N)N)cc2)c2ccc(N)cc21
A: inactive

====

System: HCT-116 colon
test: NCI tumour cell line growth inhibition, 48 h
endpoint name: TGI

Q: Quick check: TGI on HCT-116 colon, item Clc1cccc(N2CCN(CCN3CCc4c([nH]c5ccccc45)C3c3cccnc3)CC2)c1 (centres undefined) ?
A: > 91.3 µM

Q: Quick check: TGI on HCT-116 colon, item C=CC[C@@H]1C=C[C@@H](C(=O)OC)n2c(=O)n(-c3ccccc3)c(=O)n21 ?
A: > 100 µM

Q: Quick check: TGI on HCT-116 colon, item C/C(CC(=O)Nc1ccc(Cl)cc1)=N\NC(=O)C[n+]1ccccc1 ?
A: > 100 µM

Q: Quick check: TGI on HCT-116 colon, item Cc1cccc(Cl)c1NC(=O)c1cnc(Nc2cc(N3CCOCC3)cc(N3CCOCC3)c2)s1 ?
A: > 10 µM

Q: Quick check: TGI on HCT-116 colon, item COc1cc(/C=c2/c3ccccc3n3c2cc(-c2ccccc2)[n+]3C)cc(OC)c1OC ?
A: 6.96 µM

Q: Quick check: TGI on HCT-116 colon, item CN1CCN(/C(N)=C(\C#N)C(=O)Nc2ccccc2)CC1 ?
A: > 100 µM

Q: Quick check: TGI on HCT-116 colon, item COc1ccc(CCNC(=O)CCCCCO)cc1OC ?
A: > 100 µM

Q: Quick check: TGI on HCT-116 colon, item O=[P+](O)c1cc2ccccc2c2ccccc12 ?
A: > 100 µM

Q: Quick check: TGI on HCT-116 colon, item COc1ccc(/C=N\NC(=O)Nc2cccc3ccccc23)cc1 ?
A: > 100 µM

====

Tested on: PC-3 prostate
test: NCI tumour cell line growth inhibition, 48 h; in the data active means GI50 below about 0.43 µM; inactive means the rest
Reply using exactly one outcome from True for active, False for inactive

Q: Recorded test call requested for O=C1c2cc(-c3ccccc3)ccc2-c2c1c1ccc([N+](=O)[O-])cc1c(=O)n2CCCBr
A: False

Q: Recorded test call requested for CCCCOC(=O)c1ccc(NC(=O)CCl)cc1
A: False

Q: Recorded test call requested for CN1CCN(C(=O)c2c(NC(=O)NS(=O)(=O)c3ccccc3)sc3c2CCCCC3)CC1
A: False

Q: Recorded test call requested for CC(C)[NH-].CC(C)[NH-].O.O.[Cl][Pt+2][Cl]
A: False

Q: Recorded test call requested for CN1C(=O)C(=Cc2cn(Cc3ccccc3)c3ccccc23)C(=O)N(C)C1=O
A: False

Q: Recorded test call requested for Nc1nc2ccc3[nH]ncc3c2c2c1CCCC2
A: False

Q: Recorded test call requested for Cc1ccc(C(=O)/C(=C\c2ccc([N+](=O)[O-])cc2)S(=O)Cc2ccc(F)cc2)cc1 (configuration not stated)
A: False

Q: Recorded test call requested for O=C1C(Cl)=C(Nc2cccc(O)c2)C(=O)N1Cc1ccc(Cl)cc1
A: False

Q: Recorded test call requested for O=c1oc(-c2ccccc2)cc2cccc(O)c12
A: False

Q: Recorded test call requested for C[n+]1c2ccccc2c(Nc2ccc(NS(=O)(=O)CCCCN=C(N)N)cc2)c2ccc(N)cc21
A: False

Q: Recorded test call requested for Cc1cc(Nc2ccc(F)cc2)nc(N2CCN(c3ccnc4cc(Cl)ccc34)CC2)n1
A: False

Q: Recorded test call requested for CCCOC(=O)N[C@H]1CCc2cc(OC)c(OC)c(OC)c2-c2ccc(SC)c(=O)cc21
A: True

====

Provide the reported TGI of each item.
Tested on: HOP-92 NSCLC
test: NCI tumour cell line growth inhibition, 48 h

Q: What TGI value was documented for this molecule, COc1cc(-c2csc(NC(=O)Nc3cc(C(F)(F)F)cc(C(F)(F)F)c3)n2)cc(OC)c1OC ?
A: 4.36 µM

Q: What TGI value was documented for this molecule, COc1cc(C2c3cc4c(cc3OC3(OC)COC(=O)C23)OCO4)cc(OC)c1OC (stereo not given) ?
A: > 100 µM

Q: What TGI value was documented for this molecule, O=C(NCCN1CCC(O)CC1)c1cc2c(o1)C(=O)c1ccccc1C2=O ?
A: 3.19 µM

Q: What TGI value was documented for this molecule, O=C(NC12CC3CC(CC(C3)C1)C2)C(=O)c1c[nH]c2ccc([N+](=O)[O-])cc12 ?
A: > 90.5 µM

Q: What TGI value was documented for this molecule, CSc1n(Cc2ccc3ccccc3c2)c(C)c[n+]1Cc1ccc2ccccc2c1 ?
A: 1.28 µM
